assay_remarks: Cytotoxicity against African green monkey Vero E6 cells assessed as alterations in cell morphology by microscopic analysis
Assay type: cell-based, Vero C1008
test_context: chlorocebus sabaeus
measured_property: CC50 (µg/mL)
Express it in µg/mL; write the number only.

Request: Consider the molecule `OC[C@H]1O[C@@H](n2cnc(-c3noc(-c4ccccc4)n3)n2)[C@H](O)[C@@H]1O` and give its recorded CC50.
Result: 380

###

assay_remarks: Cytotoxicity against pig SPEV cells by microscopic analysis
Type: cell-based, Sus scrofa
measured_property: CC50
Just so you know, I need the unit written after the number.

Request: Answer with reported CC50 of `NC(=O)c1ncn([C@@H]2O[C@H](CO)[C@@H](O)[C@H]2O)n1`
Result: 75 µg/mL

Origin of measurements: ChEMBL document CHEMBL4184172
